Each entry below carries its reported IC50.
- System tested: Aldo-keto reductase family 1 member B1 (Bos taurus)
- Protocol summary: In vitro inhibition of partially purified calf lens aldose reductase

The compound O=C1NC(=O)C2(CCOc3c2ccc2ccccc32)N1 (stereo not drawn) showed IC50 equal to < 100 µM

New cases:
The compound O=C1NC(=O)C2(CCOc3cc(Cl)c(Cl)cc32)N1 (stereo not drawn) showed IC50 equal to < 0.1 µM

The compound O=C1NC(=O)C2(CCC(C(=O)O)c3ccccc32)N1 (stereo not drawn) showed IC50 equal to > 100 µM

The compound O=C1NC(=O)C2(CCSc3c(Cl)ccc(Cl)c32)N1 (stereo not drawn) showed IC50 equal to > 100 µM

The compound O=C(O)C1CCOc2c(Cl)cc(Cl)cc21 (stereo not drawn) showed IC50 equal to 10 µM

The compound O=C1NC(=O)C2(CCSc3cc(Cl)ccc32)N1 (stereo not drawn) showed IC50 equal to 1 µM

The compound O=C(O)C1CCSc2ccc(Cl)cc21 (stereo not drawn) showed IC50 equal to < 100 µM

The compound O=c1cnn(Cc2ccccc2)c(=O)[nH]1 showed IC50 equal to 10 µM

The compound O=C(O)C1CCCc2ccccc21 (stereo not drawn) showed IC50 equal to > 100 µM

The compound O=C1NC(=O)C2(CCOc3ccccc32)N1 (stereo not drawn) showed IC50 equal to 10 µM

###

- System tested: Aldo-keto reductase family 1 member B1 (Bos taurus, UniProt P16116)
- Protocol summary: In vitro inhibition of partially purified calf lens aldose reductase
Recorded metric: IC50

Solved cases (4 shown):
Considering Cc1ccc(C)c2c1OCCC21NC(=O)NC1=O (stereo not drawn) , its IC50 with Aldo-keto reductase family 1 member B1 (Bos taurus, UniProt P16116) was recorded as 1 µM

Considering O=C(O)C1CCOc2ccccc21 (stereo not drawn) , its IC50 with Aldo-keto reductase family 1 member B1 (Bos taurus, UniProt P16116) was recorded as 100 µM

Considering CN(C)S(=O)(=O)c1ccc2c(c1)C1(CCO2)NC(=O)NC1=O (stereo not drawn) , its IC50 with Aldo-keto reductase family 1 member B1 (Bos taurus, UniProt P16116) was recorded as 100 µM

Considering O=C1NC(=O)C2(CCOc3cc(C(F)(F)F)ccc32)N1 (stereo not drawn) , its IC50 with Aldo-keto reductase family 1 member B1 (Bos taurus, UniProt P16116) was recorded as 1 µM

New cases:
Considering O=C(O)C1CCOc2c1cc(Cl)c1ccccc21 (stereo not drawn) , its IC50 with Aldo-keto reductase family 1 member B1 (Bos taurus, UniProt P16116) was recorded as 1 µM

Considering Cc1cc(Cl)cc2c1OCCC21NC(=O)NC1=O (stereo not drawn) , its IC50 with Aldo-keto reductase family 1 member B1 (Bos taurus, UniProt P16116) was recorded as < 0.1 µM

Considering O=C1NC(=S)NC12CCCc1ccccc12 (stereo not drawn) , its IC50 with Aldo-keto reductase family 1 member B1 (Bos taurus, UniProt P16116) was recorded as > 100 µM

Considering O=C1CCC2(CCCc3ccccc32)C(=O)N1 (stereo not drawn) , its IC50 with Aldo-keto reductase family 1 member B1 (Bos taurus, UniProt P16116) was recorded as > 100 µM

Considering O=C1NC(=O)C2(CCCc3[nH]ccc32)N1 (stereo not drawn) , its IC50 with Aldo-keto reductase family 1 member B1 (Bos taurus, UniProt P16116) was recorded as > 100 µM

Considering O=CNC(=O)NC1CCc2ccccc21 (stereo not drawn) , its IC50 with Aldo-keto reductase family 1 member B1 (Bos taurus, UniProt P16116) was recorded as > 100 µM

Considering O=C(O)C1CCc2ccccc21 (stereo not drawn) , its IC50 with Aldo-keto reductase family 1 member B1 (Bos taurus, UniProt P16116) was recorded as > 100 µM

Considering COc1ccc(Cl)c2c1CCCC21NC(=O)NC1=O (stereo not drawn) , its IC50 with Aldo-keto reductase family 1 member B1 (Bos taurus, UniProt P16116) was recorded as > 100 µM

Considering O=C1NC(=O)C2(CCOc3c2cc(Cl)c2ccccc32)N1 (stereo not drawn) , its IC50 with Aldo-keto reductase family 1 member B1 (Bos taurus, UniProt P16116) was recorded as < 0.1 µM
